target: PBRM1(5) (Homo sapiens, UniProt Q86U86); experiment: BROMOscan ligand-binding assay; conditions: KD, BROMOscan, PBRM1(5)
Sequence (Q86U86 653-763 limits assumed): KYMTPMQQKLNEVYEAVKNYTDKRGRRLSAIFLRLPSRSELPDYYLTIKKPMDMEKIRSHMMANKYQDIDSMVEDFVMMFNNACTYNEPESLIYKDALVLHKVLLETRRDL
attribute.measured: Kd

INSERT INTO results (item_smiles, attribute_measured, reported_value) VALUES
  ('COc1ccc(CCc2nc3cc(-c4c(C)noc4C)ccc3n2C[C@H](C)N2CCOCC2)cc1Cl', 'Kd', '49.7 µM');

* * *

Target: BRD9 (Homo sapiens)
Sequence (Q9H8M2 136-240 limits assumed): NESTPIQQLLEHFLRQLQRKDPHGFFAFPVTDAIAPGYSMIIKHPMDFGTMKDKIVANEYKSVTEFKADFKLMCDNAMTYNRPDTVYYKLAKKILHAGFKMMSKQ
Experiment: BROMOscan ligand-binding assay
Settings: KD (BROMOscan), sheet prints no unit (nM)
attribute.measured: Kd

INSERT INTO results (compound, reported_value) VALUES
  ('O=C(C=CN1CC2CC1CN2c1ccccn1)c1ccccc1O (stereo not shown) [PFI-3]', '> 30000 nM');

Ref: paper PMC6478789
